Target: T1, human KLRB1 protein extracellular domain (ECD) (human, UniProt Q12918 67-225)
T1 construct: range 67-225; The ELISA and SPR text says only 'human KLRB1 ECD'; also called human KLRB1 ECD; CD161
T1 sequence (looked up): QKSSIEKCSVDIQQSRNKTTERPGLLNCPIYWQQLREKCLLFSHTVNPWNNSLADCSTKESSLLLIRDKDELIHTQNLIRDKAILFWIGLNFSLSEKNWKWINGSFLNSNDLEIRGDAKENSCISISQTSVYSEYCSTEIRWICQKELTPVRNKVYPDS
Test: SPR, human KLRB1 ECD; format not stated
readout.label: pKd
Value format note: pKd is -log10 of concentration (mol/L); just state the number.

Answered examples (4):
>>> reported_measurement("10A3D6C109Chum5.1 (antibody, V domains shown, Humanized variant of 10A3D6 made by CDR grafting) VH: QVQLVQSGAEVKKPGASVKVSCKASGYSFTGYTMNWVRQAPGQNLEWMGLINPNTGGTYYNQKFKDRVTLTVDTSISTAYMELSRLRSDDTVVYYCARLGDNYRGYFDCWGQGTLVTVSS VL: DIQLTQSPSFLSASVGDRVTITCKASQDVGTAVVWYQQKPGKAPKLLIYWASIRHTGVPSRFSGSGSGTEFTLTISSLQPEDFATYYCQQYSTYLYTFGGGTKLEIK")
7.99
>>> reported_measurement("10A3D6C109Chum4.2 (antibody, V domains shown, Humanized variant of 10A3D6 made by CDR grafting) VH: QVQLVQSGAEVKKPGASVKVSCKASGYSFTGYTMNWVRQAHGQNLEWIGLINPNTGGTYYNQKFKDRATLTVDTSISTAYMELSRLRSDDTAVYYCARLGDNYRGYFDCWGQGTTVTVSS VL: DIQLTQSPSFLSASVGDRVTITCKASQDVGTAVVWYQQKPGKAPKLLIDWASIRHTGVPSRFSGSGSGTEFTLTISSLQPEDFADYFCQQYSTYLYTFGGGTKLEIK")
9.92
>>> reported_measurement("10A3D6C109Chum3.4 (antibody, V domains shown, Humanized variant of 10A3D6 made by CDR grafting) VH: QVQLVQSGAEVKKPGASVKVSCKASGYSFTGYTMNWVRQAHGQNLEWIGLINPNTGGTYYNQKFKDRVTLTVDTSISTAYMELSRLRSDDTAVYYCARLGDNYRGYFDCWGQGTTVTVSS VL: DIQLTQSPSFLSASVGDRVTITCKASQDVGTAVVWYQQTPGKAPKLLIDWASIRHTGVPDRFSGSGSGTEFTLTISSLQPEDFADYFCQQYSTYLYTFGGGTKLEIK")
10.04
>>> reported_measurement("10A3D6hum1.2 (antibody, V domains shown, Fluorescently labelled in the competition assay; dye and attachment site not stated., Humanized antibody; also called 103AD6hum1.2; copies: 2 + 2) VH: QVQLVQSGAEVKKPGASVKVSCKASGYSFTGYTMNWVRQAPGQGLEWMGLINPNTGGTYYNQKFKDRVTMTRDTSISTAYMELSRLRSDDTAVYYCARLGDNYRGYFDSWGQGTTVTVSS VL: DIQLTQSPSFLSASVGDRVTITCKASQDVGTAVVWYQQKPGKAPKLLIDWASIRHTGVPSRFSGSGSGTEFTLTISSLQPEDFADYFCQQYSTYLYTFGGGTKLEIKR")
9.83

### Prompt Name the recorded pKd for 10A3D6C109Chum5.5 (antibody, V domains shown, Humanized variant of 10A3D6 made by CDR grafting) VH: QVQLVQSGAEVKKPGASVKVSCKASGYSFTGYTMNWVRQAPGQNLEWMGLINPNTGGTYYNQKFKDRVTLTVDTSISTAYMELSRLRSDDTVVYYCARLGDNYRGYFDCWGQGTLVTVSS VL: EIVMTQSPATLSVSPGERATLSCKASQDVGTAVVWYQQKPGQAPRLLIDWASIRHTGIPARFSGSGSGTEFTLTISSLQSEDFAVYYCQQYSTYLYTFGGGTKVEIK .
### Response 9.77

### Prompt Name the recorded pKd for 10A3D6C109Chum4.3 (antibody, V domains shown, Humanized variant of 10A3D6 made by CDR grafting) VH: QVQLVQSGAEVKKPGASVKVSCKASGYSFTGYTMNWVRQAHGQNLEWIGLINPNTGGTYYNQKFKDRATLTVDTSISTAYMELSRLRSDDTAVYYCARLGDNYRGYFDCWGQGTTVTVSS VL: DIQLTQSPSFLSASVGDRVTITCKASQDVGTAVVWYQQTPGKAPKLLIDWASIRHTGVPSRFSGSGSGTEFTLTISSLQPEDFADYFCQQYSTYLYTFGGGTKLEIK .
### Response 9.90

### Prompt Name the recorded pKd for 10A3D6C109Chum3.1 (antibody, V domains shown, Humanized variant of 10A3D6 made by CDR grafting) VH: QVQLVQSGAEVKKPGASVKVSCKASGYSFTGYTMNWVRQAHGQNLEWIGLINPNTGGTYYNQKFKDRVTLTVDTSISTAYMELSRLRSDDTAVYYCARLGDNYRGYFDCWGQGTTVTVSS VL: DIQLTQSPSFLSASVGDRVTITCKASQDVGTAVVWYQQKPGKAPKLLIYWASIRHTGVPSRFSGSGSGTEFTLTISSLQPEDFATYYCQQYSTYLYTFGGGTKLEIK .
### Response 7.80

### Prompt Name the recorded pKd for 10A3D6hum2.2 (antibody, human IgG1, kappa, V domains shown, copies: 2 + 2) VH: QVQLVQSGAEVKKPGASVKVSCKASGYSFTGYTMNWVRQAPGQNLEWIGLINPNTGGTYYNQKFKDRVTLTVDTSISTAYMELSRLRSDDTAVYYCARLGDNYRGYFDSWGQGTTVTVSS VL: DIQLTQSPSFLSASVGDRVTITCKASQDVGTAVVWYQQKPGKAPKLLIDWASIRHTGVPSRFSGSGSGTEFTLTISSLQPEDFADYFCQQYSTYLYTFGGGTKLEIKR .
### Response 9.88

### Prompt Name the recorded pKd for 10A3D6C109Chum1.4 (antibody, V domains shown, Humanized variant of 10A3D6 made by CDR grafting) VH: QVQLVQSGAEVKKPGASVKVSCKASGYSFTGYTMNWVRQAPGQGLEWMGLINPNTGGTYYNQKFKDRVTMTRDTSISTAYMELSRLRSDDTAVYYCARLGDNYRGYFDCWGQGTTVTVSS VL: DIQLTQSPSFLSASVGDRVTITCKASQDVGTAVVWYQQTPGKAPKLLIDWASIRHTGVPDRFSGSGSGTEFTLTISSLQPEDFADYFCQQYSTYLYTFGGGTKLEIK .
### Response 10.14

### Prompt Name the recorded pKd for 10A3D6C109Chum5.3 (antibody, V domains shown, Humanized variant of 10A3D6 made by CDR grafting) VH: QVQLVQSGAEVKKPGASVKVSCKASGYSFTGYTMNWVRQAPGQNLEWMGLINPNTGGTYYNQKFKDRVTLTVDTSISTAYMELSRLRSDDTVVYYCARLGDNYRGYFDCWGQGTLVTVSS VL: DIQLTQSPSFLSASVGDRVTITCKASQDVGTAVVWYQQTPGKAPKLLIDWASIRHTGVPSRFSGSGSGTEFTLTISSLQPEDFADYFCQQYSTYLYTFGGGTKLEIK .
### Response 9.81
